# TARGET OF ASSAY: SCD (Homo sapiens)
# Sequence (O00767 whole entry, species assumed): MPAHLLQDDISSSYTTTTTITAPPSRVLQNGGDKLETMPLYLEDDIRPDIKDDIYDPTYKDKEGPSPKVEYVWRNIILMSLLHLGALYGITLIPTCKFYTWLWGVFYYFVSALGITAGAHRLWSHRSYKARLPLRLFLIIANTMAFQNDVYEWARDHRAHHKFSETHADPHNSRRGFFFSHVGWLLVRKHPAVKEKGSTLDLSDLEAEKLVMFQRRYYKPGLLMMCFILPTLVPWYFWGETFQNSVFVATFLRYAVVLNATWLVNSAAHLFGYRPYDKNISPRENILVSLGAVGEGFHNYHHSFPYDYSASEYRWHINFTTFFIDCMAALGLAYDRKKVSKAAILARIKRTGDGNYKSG
# METHOD DESCRIPTION: Cell IC50 of SCD inhibitors (Table 1, no method given)
# ASSAY SETUP: cell assay, cell type not stated
MEASURED QUANTITY: IC50 (nM)

{"MOLECULE": "O=C(c1ccccc1C(F)(F)F)N1CCN(c2ccc(SCCc3ccccc3)nn2)CC1", "IC50 [nM]": 33}

(a) O=C(c1ccccc1C(F)(F)F)N1CCN(c2ccc(OCCc3ccccc3)nn2)CC1
(b) CC(C)CCSc1ccc(N2CCN(C(=O)c3ccccc3C(F)(F)F)CC2)nn1
(c) CCCS(=O)(=O)Nc1ccc(N2CCN(C(=O)c3ccccc3C(F)(F)F)CC2)nn1
(d) O=C(c1ccccc1C(F)(F)F)N1CCN(c2ccc([S+]([O-])CCc3ccccc3)nn2)CC1 (stereo not drawn)
(e) O=C(c1ccccc1C(F)(F)F)N1CCN(c2ccc(S(=O)(=O)CCc3ccccc3)nn2)CC1
Sort (5 molecules) by IC50: min first. State the ranking by listing the labels in the requested order.
e, d, b, a, c
(e: 111 nM, d: 175 nM, b: 849 nM, a: 4300 nM, c: 10500 nM)
